Recorded values, source patent US20250236616A1.

- System: IL-1β
- experimentDescription: Whole bovine blood assay, LPS-induced IL-1β (inhibition / overstimulation)
- Type: cell-based
- assayConditions: drug concentration giving overstimulation (OS) of LPS-induced IL-1β, top concentration 250 μM
# minimal effective concentration >= 20 µM gives 1.0, anything below gives 0.0

Problem: I'd appreciate it if you could say whether CC[C@H]1OC(=O)[C@H](C)[C@@H](O)[C@H](C)[C@@H](O[C@@H]2O[C@H](C)C[C@H](N(C)S(=O)(=O)c3nccn3C)[C@H]2Oc2ccc(F)cc2)[C@](C)(O)C[C@@H](C)CN[C@H](C)[C@@H](O)[C@]1(C)O [Example A-27] has minimal effective concentration at least equal to 20 µM.
Result: 1.0

Problem: Please tell me: is the compound CC[C@H]1OC(=O)[C@H](C)[C@@H](O[C@H]2C[C@@](C)(OC)[C@](O)(CNCCOC(F)(F)F)[C@H](C)O2)[C@H](C)[C@@H](O[C@@H]2O[C@H](C)C[C@H](N(C)S(=O)(=O)Nc3ccc(C(F)(F)F)cc3)[C@H]2O)[C@](C)(O)C[C@@H](C)CN[C@H](C)[C@@H](O)[C@]1(C)O [Example B-129] at or over 20 µM in terms of minimal effective concentration?
Result: 0.0

Problem: Please indicate if the recorded minimal effective concentration for CC[C@H]1OC(=O)[C@H](C)[C@@H](O)[C@H](C)[C@@H](O[C@@H]2O[C@H](C)C[C@H](N(C)S(=O)(=O)c3cccs3)[C@H]2Oc2ccc(F)cc2)[C@](C)(O)C[C@@H](C)CN[C@H](C)[C@@H](O)[C@]1(C)O [Example A-22] meets or exceeds 20 µM.
Result: 0.0

Problem: Kindly determine if minimal effective concentration recorded for CC[C@H]1OC(=O)[C@H](C)[C@@H](O[C@H]2C[C@@](C)(OC)[C@](O)(CNCCOC)[C@H](C)O2)[C@H](C)[C@@H](O[C@@H]2O[C@H](C)C[C@H](N(C)S(=O)(=O)c3ccc(Cl)cc3)[C@H]2O)[C@](C)(O)C[C@@H](C)CN[C@H](C)[C@@H](O)[C@]1(C)O [Example B-36] is above or exactly 20 µM.
Result: 0.0

Problem: I'd appreciate it if you could say whether CCCNC[C@]1(O)[C@H](C)O[C@@H](O[C@H]2[C@H](C)[C@@H](O[C@@H]3O[C@H](C)C[C@H](N(C)S(=O)(=O)c4cnc5ccsc5c4)[C@H]3O)[C@](C)(O)C[C@@H](C)CN[C@H](C)[C@@H](O)[C@](C)(O)[C@@H](CC)OC(=O)[C@@H]2C)C[C@@]1(C)OC [Example B-9] has minimal effective concentration at least equal to 20 µM.
Result: 1.0

Problem: In plain terms: is recorded minimal effective concentration at least 20 µM for CC[C@H]1OC(=O)[C@H](C)[C@@H](O[C@H]2C[C@@](C)(OC)[C@](O)(CN3CCCC3)[C@H](C)O2)[C@H](C)[C@@H](O[C@@H]2O[C@H](C)C[C@H](N(C)S(=O)(=O)c3ccc(Cl)cc3)[C@H]2O)[C@](C)(O)C[C@@H](C)CN[C@H](C)[C@@H](O)[C@]1(C)O [Example C-3] ?
Result: 0.0

Problem: Reported minimal effective concentration at or above 20 µM? CC[C@H]1OC(=O)[C@H](C)[C@@H](O)[C@H](C)[C@@H](O[C@@H]2O[C@H](C)C[C@H](N(C)S(=O)(=O)c3cnc4n3CCC4)[C@H]2Oc2ccc(F)cc2)[C@](C)(O)C[C@@H](C)CN[C@H](C)[C@@H](O)[C@]1(C)O [Example A-28]
Result: 1.0

* * *

- System: IL-1β
- experimentDescription: Whole bovine blood assay, LPS-induced IL-1β (inhibition / overstimulation)
- Assay type: cell-based
- assayConditions: drug concentration giving overstimulation (OS) of LPS-induced IL-1β, top concentration 250 μM
- Description: Whole Blood Assay-Fresh whole bovine blood samples were collected into heparinized vacutainer tubes. […] Cytokine Detection—An MSD U-Plex cytokine assay was developed following the MSD U-Plex protocol guide and included biotinylated capture antibodies against: bovine Interleukin (IL)-1β (Biorad), bovine IL-6 (R&D Systems) and bovine tumor necrosis factor (TNF)-α (R&D Systems). […] Cytokines were quantified according to manufacturer's instructions using a chemiluminescent readout. […]
Field: log10(minimal effective concentration). Provide a value for each of the compounds that follow.
Hey, these are logged values: log10 of minimal effective concentration, µM being the unit before logging.

Problem: Please give the documented log10(minimal effective concentration) of CCCNC[C@]1(O)[C@H](C)O[C@@H](O[C@H]2[C@H](C)[C@@H](O[C@@H]3O[C@H](C)C[C@H](N(C)S(=O)(=O)c4ccc(F)nc4)[C@H]3O)[C@](C)(O)C[C@@H](C)CN[C@H](C)[C@@H](O)[C@](C)(O)[C@@H](CC)OC(=O)[C@@H]2C)C[C@@]1(C)OC
Result: 1.20

Problem: For the compound CCCNC[C@]1(O)[C@H](C)O[C@@H](O[C@H]2[C@H](C)[C@@H](O[C@@H]3O[C@H](C)C[C@H](N(C)S(=O)(=O)c4nccn4C)[C@H]3Oc3ccc(OC)cc3)[C@](C)(O)C[C@@H](C)CN[C@H](C)[C@@H](O)[C@](C)(O)[C@@H](CC)OC(=O)[C@@H]2C)C[C@@]1(C)OC , give its measured log10(minimal effective concentration) value.
Result: 0.78

Problem: # return recorded log10(minimal effective concentration) for input CCCNC[C@]1(O)[C@H](C)O[C@@H](O[C@H]2[C@H](C)[C@@H](O[C@@H]3O[C@H](C)C[C@H](N(C)S(=O)(=O)c4ccc(F)cc4)[C@H]3Oc3ccc(F)cc3)[C@](C)(O)C[C@@H](C)CN[C@H](C)[C@@H](O)[C@](C)(O)[C@@H](CC)OC(=O)[C@@H]2C)C[C@@]1(C)OC
Result: 0.78

Problem: Give a short answer stating reported log10(minimal effective concentration) for CCCNC[C@]1(O)[C@H](C)O[C@@H](O[C@H]2[C@H](C)[C@@H](O[C@@H]3O[C@H](C)C[C@H](N(C)S(=O)(=O)c4ccc(C#N)cc4)[C@H]3O)[C@](C)(O)C[C@@H](C)CN[C@H](C)[C@@H](O)[C@](C)(O)[C@@H](CC)OC(=O)[C@@H]2C)C[C@@]1(C)OC .
Result: 2.00

Problem: Give log10(minimal effective concentration) for CC[C@H]1OC(=O)[C@H](C)[C@@H](O[C@H]2C[C@@](C)(OC)[C@](O)(CNCCS(C)(=O)=O)[C@H](C)O2)[C@H](C)[C@@H](O[C@@H]2O[C@H](C)C[C@H](N(C)S(=O)(=O)c3ccc(C(F)(F)F)cc3)[C@H]2O)[C@](C)(O)C[C@@H](C)CN[C@H](C)[C@@H](O)[C@]1(C)O
Result: 1.04

Problem: Give recorded log10(minimal effective concentration). CCCNC[C@]1(O)[C@H](C)O[C@@H](O[C@H]2[C@H](C)[C@@H](O[C@@H]3O[C@H](C)C[C@H](N(C)S(=O)(=O)N4CCCCC4)[C@H]3O)[C@](C)(O)C[C@@H](C)CN[C@H](C)[C@@H](O)[C@](C)(O)[C@@H](CC)OC(=O)[C@@H]2C)C[C@@]1(C)OC
Result: 1.60

* * *

Please provide measured minimal effective concentration for the entries that follow.
- Tested on: IL-1β
- experimentDescription: Whole bovine blood assay, LPS-induced IL-1β (inhibition / overstimulation)
- Assay type: cell-based
- assayConditions: drug concentration giving overstimulation (OS) of LPS-induced IL-1β, top concentration 250 μM
Provide the reading as a plain figure in µM.

Problem: Provide only the value of recorded minimal effective concentration for CCCNC[C@]1(O)[C@H](C)O[C@@H](O[C@H]2[C@H](C)[C@@H](O[C@@H]3O[C@H](C)C[C@H](N(C)S(=O)(=O)N4CCc5ccccc5C4)[C@H]3O)[C@](C)(O)C[C@@H](C)CN[C@H](C)[C@@H](O)[C@](C)(O)[C@@H](CC)OC(=O)[C@@H]2C)C[C@@]1(C)OC
Result: 2

Problem: Indicate its recorded minimal effective concentration; the compound in question is CC[C@H]1OC(=O)[C@H](C)[C@@H](O[C@H]2C[C@@](C)(OC)[C@](O)(CN3CCN(CC)CC3)[C@H](C)O2)[C@H](C)[C@@H](O[C@@H]2O[C@H](C)C[C@H](N(C)S(=O)(=O)Nc3ccc(C(F)(F)F)cc3)[C@H]2O)[C@](C)(O)C[C@@H](C)CN[C@H](C)[C@@H](O)[C@]1(C)O
Result: 100

Problem: Kindly indicate its recorded minimal effective concentration. Item: CC[C@H]1OC(=O)[C@H](C)[C@@H](O)[C@H](C)[C@@H](O[C@@H]2O[C@H](C)C[C@H](N(C)S(=O)(=O)c3ccccc3)[C@H]2Oc2ccc(OC)cc2)[C@](C)(O)C[C@@H](C)CN(C)[C@H](C)[C@@H](O)[C@]1(C)O
Result: 16

Problem: Recall and state the measured minimal effective concentration for CC[C@H]1OC(=O)[C@H](C)[C@@H](O[C@H]2C[C@@](C)(OC)[C@](O)(CNCCNC(C)=O)[C@H](C)O2)[C@H](C)[C@@H](O[C@@H]2O[C@H](C)C[C@H](N(C)S(=O)(=O)Nc3ccc(C(F)(F)F)cc3)[C@H]2O)[C@](C)(O)C[C@@H](C)CN[C@H](C)[C@@H](O)[C@]1(C)O .
Result: 15

Problem: Name the recorded minimal effective concentration of the compound listed here: CCCNC[C@]1(O)[C@H](C)O[C@@H](O[C@H]2[C@H](C)[C@@H](O[C@@H]3O[C@H](C)C[C@H]4[C@H]3OS(=O)(=O)N4C)[C@](C)(O)C[C@@H](C)CN[C@H](C)[C@@H](O)[C@](C)(O)[C@@H](CC)OC(=O)[C@@H]2C)C[C@@]1(C)OC
Result: 16

Problem: Consider the compound CC[C@H]1OC(=O)[C@H](C)[C@@H](O)[C@H](C)[C@@H](O[C@@H]2O[C@H](C)C[C@H](N(C)S(=O)(=O)Nc3ccccc3)[C@H]2Oc2ccc(OC)cc2)[C@](C)(O)C[C@@H](C)CN[C@H](C)[C@@H](O)[C@]1(C)O . State its measured minimal effective concentration.
Result: 4
